Every entry's value here was drawn from paper PMC4336329.

# TEST_TARGET: human ether-à-go-go-related gene (hERG) potassium channel (human, UniProt Q12809)
# Sequence (Q12809 whole entry, looked up): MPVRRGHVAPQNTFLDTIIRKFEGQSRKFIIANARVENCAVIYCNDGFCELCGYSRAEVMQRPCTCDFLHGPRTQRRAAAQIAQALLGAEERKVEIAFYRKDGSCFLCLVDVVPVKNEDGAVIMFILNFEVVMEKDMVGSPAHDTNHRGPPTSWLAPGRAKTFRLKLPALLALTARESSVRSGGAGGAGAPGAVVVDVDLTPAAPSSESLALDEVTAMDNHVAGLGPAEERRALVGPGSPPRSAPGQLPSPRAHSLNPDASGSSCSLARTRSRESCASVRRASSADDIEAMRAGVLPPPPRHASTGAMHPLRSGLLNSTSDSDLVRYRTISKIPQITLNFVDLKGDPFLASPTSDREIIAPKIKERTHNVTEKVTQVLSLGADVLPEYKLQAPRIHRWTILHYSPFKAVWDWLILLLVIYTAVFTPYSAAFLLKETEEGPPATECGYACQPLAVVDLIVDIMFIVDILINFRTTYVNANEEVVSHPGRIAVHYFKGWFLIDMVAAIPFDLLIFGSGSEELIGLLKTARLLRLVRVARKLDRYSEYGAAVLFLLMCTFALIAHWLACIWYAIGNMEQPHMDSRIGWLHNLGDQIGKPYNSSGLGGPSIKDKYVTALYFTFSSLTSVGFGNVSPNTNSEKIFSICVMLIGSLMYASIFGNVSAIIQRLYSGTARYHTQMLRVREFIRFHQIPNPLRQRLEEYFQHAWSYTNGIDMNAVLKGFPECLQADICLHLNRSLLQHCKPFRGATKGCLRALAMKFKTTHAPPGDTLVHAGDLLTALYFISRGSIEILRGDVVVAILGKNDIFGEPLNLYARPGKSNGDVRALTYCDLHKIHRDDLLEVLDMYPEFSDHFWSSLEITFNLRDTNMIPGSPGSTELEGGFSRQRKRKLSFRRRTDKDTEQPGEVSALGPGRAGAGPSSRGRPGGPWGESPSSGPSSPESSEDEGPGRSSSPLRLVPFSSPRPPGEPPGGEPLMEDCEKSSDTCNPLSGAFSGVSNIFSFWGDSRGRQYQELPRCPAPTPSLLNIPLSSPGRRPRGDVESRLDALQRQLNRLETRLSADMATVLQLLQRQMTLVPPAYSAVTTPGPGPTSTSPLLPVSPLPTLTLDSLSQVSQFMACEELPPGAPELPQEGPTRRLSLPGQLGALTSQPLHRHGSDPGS
# EXPERIMENTAL_DETAILS: primary screen, population patch clamp on CHO cells stably expressing hERG; higher = less effect of the substance
Screen size: about 310,000 compounds; about 2,200 (0.71%) showed an effect of 50% or more. Effects have a minus sign here. Shown is part of a subset that was picked to be rich in strong results.
REPORTED_ENDPOINT: hERG current change (%, negative = inhibition) at 1uM (%)
Response body: numeric value in %, unit text excluded.

# annotated cases, reported hERG current change (%, negative = inhibition) at 1uM shown
>>> print(df.to_string())
                                   compound  measured_result
0  CCC(C)(C)NC(=O)CN(C(=O)c1snc(C(N)=O)c1N)c1ccc2c(c1)OCO2             3.43
1  CC1(c2nnc(-c3ccncc3)o2)CC(c2ccccc2)=NO1 (centres unmarked)             16.4
2         Cc1cccc(NC(=O)Nc2ccc3c(c2)OCO3)n1             15.6

Problem: Recorded hERG current change (%, negative = inhibition) at 1uM for "CCN(CC)c1ccc(NC(=O)CN2CCN(c3ccccc3F)CC2)cc1" , please?
Result: 7.06

Problem: Recorded hERG current change (%, negative = inhibition) at 1uM for "O=C(CN1CCN(c2ccc(Cl)cc2)CC1)Nc1ccc(F)cc1" , please?
Result: -28.1

Problem: Recorded hERG current change (%, negative = inhibition) at 1uM for COc1ccc(CNC(=O)COC(=O)CC2CC3CCC2C3)cc1OC (centres unmarked) , please?
Result: 6.66

Problem: Recorded hERG current change (%, negative = inhibition) at 1uM for "Cc1ccc(-c2cc3ccccc3nc2N2CCOCC2)cc1" , please?
Result: 9.78

Problem: Recorded hERG current change (%, negative = inhibition) at 1uM for "O=C(CN1CCN(CC(=O)Nc2ccc(-c3ccccc3)cc2)CC1)Nc1ccc(F)cc1" , please?
Result: -13.7
